Cited source: patent US20160040149A1

protocol_details: Saturation mutagenesis of SEQ ID NO:109: dicamba decarboxylation activity of point mutants (CO2 released), fold of backbone (Tables 7, 8, Megatable 1)
details: decarboxylation activity (CO2 released) of point mutant vs unmutated backbone protein; backbone SEQ ID NO: 109
attribute_measured: Fold Activity (fold)
Please reply with the bare figure in fold and do not write the unit itself.

Exercise: Could you share which Fold Activity value was measured for 22 (protein, listed as Staphylococcus epidermidis) MAKSINFEEHYVVDDIQKETMKYMSSDPNGVPMQTMLKGLEQKSGFTNADDITKHDERIKFMDEHDVEMQVLSYGNGAPSNLEGERAIELCQQANDTLAKYVNEHPDRFVGFATLPINEPQAAVEEFKRCIKELGFKGALIMGHPKNGFLDQDQYDDLFATAEALNVPIYLHPSPVQSDVYQAYYKGNYSDVTAATFACFGYGWHVDVGIHAIHLVLSGVFDRHPNLNMIIGHWGEFVPFFLERMDDILFADHLEHPISYYFKNNFYITPSGMLTKPQFDLVKAEVGVDRILYSADYPYVEPDKLGTFLDELDLTEEEKEKISYKNGAKLLGLEK ?
Solution: 1.6
